Target: T1, recombinant human B7-H4-huIgG1 (human)
T1 construct: also called B7-H4-extracellular domain (ECD)
T1 sequence (chain, as listed by the source limits assumed): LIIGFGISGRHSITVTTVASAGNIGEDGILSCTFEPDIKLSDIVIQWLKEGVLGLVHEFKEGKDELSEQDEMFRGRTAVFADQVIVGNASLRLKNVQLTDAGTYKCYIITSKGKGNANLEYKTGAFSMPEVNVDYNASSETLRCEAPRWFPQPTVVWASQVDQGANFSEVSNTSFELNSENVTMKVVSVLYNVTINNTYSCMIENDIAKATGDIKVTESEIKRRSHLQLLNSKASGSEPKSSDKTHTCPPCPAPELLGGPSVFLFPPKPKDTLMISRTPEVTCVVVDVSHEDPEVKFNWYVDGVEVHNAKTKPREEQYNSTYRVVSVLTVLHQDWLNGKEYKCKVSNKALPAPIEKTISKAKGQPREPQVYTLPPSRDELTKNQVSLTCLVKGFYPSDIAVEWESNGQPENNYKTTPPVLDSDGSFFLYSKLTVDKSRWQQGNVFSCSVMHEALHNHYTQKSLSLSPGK
Assay: BLI, antigen on Protein A tips;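 further: Anti-B7-H4 antibodies assessed for affinity toward the B7-H4 extracellular domain using biolayer interferometry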
OUTCOME MEASURE: kon (M⁻¹ s⁻¹)
One number for each entry, in M⁻¹ s⁻¹.

Query block: If you can, please state the reported kon value of B7-H4 antibody 15461 (antibody, human IgG1, kappa, V domains shown, human IgG1/kappa) VH: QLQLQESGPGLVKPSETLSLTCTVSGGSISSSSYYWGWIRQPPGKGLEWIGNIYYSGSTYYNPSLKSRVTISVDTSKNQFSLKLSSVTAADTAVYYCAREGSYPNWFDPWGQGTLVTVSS VL: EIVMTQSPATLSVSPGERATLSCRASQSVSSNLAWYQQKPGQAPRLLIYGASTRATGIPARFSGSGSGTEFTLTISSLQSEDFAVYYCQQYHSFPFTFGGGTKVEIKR .
Result block: 381000
